Every entry's value here was drawn from patent US9655875B2.

- Tested on: human lung squamous carcinoma cells H460
- Experimental details: MTT growth inhibition of H460 cells (IC50)
- Assay type: cell-based
- Conditions: NCI-H460, 48 hrs of treatment
Property name: IC50
Entry format: amount then unit.

In: Quick one: IC50 for C[S+]([O-])CCCCN=C=S (stereo not shown) [Sulforaphane] ?
Out: 34.6 µM
